# Test system: SKOV3
# test description: Primary qHTS to identify gynecologic anti-cancer compounds using libraries of approved drugs and bioactive compounds (AID 1345084); also: % is scaled to controls: 0 for no effect and ±100 for the full control effect; nearly all actives have a fitted effect of over 55% in size
# condition: Gynecologic cancer cell panel viability, ATPlite luminescence, 48 h; series mostly up to 57.5 µM
# Excerpt: National Center for Advancing Translational Sciences [NCATS] Assay Overview: Chemotherapeutic drug responses vary from cancer to cancer and from patient to patient. […] ATPlite is a luminescence based assay reliant on the conversion of a luciferase substrate to light in the presence of ATP. As a cytotoxic compound will suppress growth and decrease the number of cells, the concentration of ATP will decrease, and less light signal will be detected in the well. […]
Inconclusive results are not listed. Calls of active or inactive are those of the source. Calls follow the shape of the dose curve; as a rule, active = well fitted cell-killing curve with a large enough effect; inconclusive = small, poorly fitted or top-dose-only effect, or effect the other way; inactive = flat fitted curve, though single readings scatter.
assay readout: activity change, negative = cytotoxicity

compound	activity change, negative = cytotoxicity
CC(C)=CC[C@H]1O[C@]2(O)C([C@H]3CCC4[C@@]5(C)CC[C@H](O[C@@H]6O[C@H](CO)[C@H](O)[C@H](O[C@@H]7O[C@H](CO)[C@@H](O)[C@H](O)[C@H]7O)[C@H]6O[C@@H]6O[C@@H](C)[C@H](O)[C@@H](O)[C@H]6O)C(C)(C)C5CC[C@@]4(C)[C@]3(C)[C@H]2O)[C@@]1(C)O (some centres not stated)	28% [at 11.6 µM] (inactive)
CC/C=C\[C@H](O)[C@H](O)C1=C(C)C(=O)[C@]2(O1)C(=O)N[C@@](O)(C(=O)c1ccccc1)[C@@H]2O	inactive
CC(C)=CCC[C@](C)(O[C@@H]1O[C@H](CO[C@@H]2O[C@@H](CO)[C@H](O)[C@H]2O[C@@H]2OC[C@@H](O)[C@H](O)[C@H]2O)[C@@H](O)[C@H](O)[C@H]1O)[C@H]1CC[C@]2(C)[C@@H]1[C@H](O)CC1[C@@]3(C)CC[C@H](O[C@@H]4O[C@H](CO)[C@@H](O)[C@H](O)[C@H]4O[C@@H]4O[C@H](CO)[C@@H](O)[C@H](O)[C@H]4O)C(C)(C)C3CC[C@]12C (some centres not stated)	24.5% [at 6.55 µM] (inactive)
OC[C@@]1(O)CO[C@H](OC[C@H]2O[C@@H](OC(CCCCc3ccc(O)cc3)CCc3ccc(O)cc3)[C@H](O)[C@@H](O)[C@@H]2O)[C@@H]1O (some centres not stated)	inactive
CC(=O)[C@@H]1C[C@H](C(C)(C)O[C@@H]2O[C@H](CO)[C@@H](O)[C@H](O)[C@H]2O)CC[C@@]2(CO)OC(=O)C[C@@H]12	inactive
CN1CCN(C(=O)c2cc3cc(Cl)ccc3[nH]2)CC1	inactive
COc1ccc(C2OCC3C(c4cc(OC)c5c(c4)OCO5)OCC23)cc1OC (configuration not stated)	inactive
C[C@@H]1CC[C@]2(C(=O)O)CC[C@]3(C)C(=CCC4[C@@]5(C)C[C@@H](O)[C@H](O)[C@@](C)(CO)C5CC[C@]43C)C2[C@H]1C (some centres not stated)	inactive
O=S(=O)(O)c1ccc(Nc2ncnc3c2ncn3[C@@H]2O[C@H](CO)[C@@H](O)[C@H]2O)cc1	inactive
CC(=O)OC[C@@]12C(=O)C[C@@H](C)[C@]3(C[C@@H](c4ccoc4)OC3=O)[C@H]1CC[C@H](OC(C)=O)[C@]21CO1	inactive

The compound listed as "Cc1cccc(NC(=O)CN2CCC(c3ccccn3)CC2)c1" has a reported activity change, negative = cytotoxicity of inactive

The compound listed as "O=C(OC[C@H]1O[C@H](O[C@]2(CO)O[C@H](CO)[C@@H](O)[C@@H]2O)[C@H](O)[C@@H](O)[C@@H]1O)c1ccc(O)cc1" has a reported activity change, negative = cytotoxicity of inactive

Data provenance is PubChem BioAssay (NCATS).
